Target: T1, CSPG4 (chondroitin sulfate proteoglycan 4) peptide on HLA-C*07:01 (human)
T1 peptide: HIIFPHGSL
Test: killing
QUANTITY KIND: binding result

INSERT INTO results (binder, quantity_kind, value_measured) VALUES
  ('11C/73 TCR (TCR) alpha TRAV12-2*02 TRAJ45*01 CDR3: CAVNAAGGGADGLTF beta TRBV28*01 TRBJ2-2*01 CDR3: CASSYDWGGELFF', 'binding result', 'recognises'),
  ('2Cα-11Cβ cTCR (TCR) alpha TRAV35*02 TRAJ34*01 CDR3: CAGSYNTDKLIF beta TRBV28*01 TRBJ2-2*01 CDR3: CASSYDWGGELFF', 'binding result', 'recognises'),
  ('2C/165 TCR (TCR) alpha TRAV35*02 TRAJ34*01 CDR3: CAGSYNTDKLIF beta TRBV3-1*01 TRBJ2-1*01 CDR3: CASSQGWTRNEQFF', 'binding result', 'recognises');
